# Study target: flavodoxin II (apoflavodoxin) (Azotobacter vinelandii, UniProt P00324, C70A)
# Sequence (P00324 2-180 C70A): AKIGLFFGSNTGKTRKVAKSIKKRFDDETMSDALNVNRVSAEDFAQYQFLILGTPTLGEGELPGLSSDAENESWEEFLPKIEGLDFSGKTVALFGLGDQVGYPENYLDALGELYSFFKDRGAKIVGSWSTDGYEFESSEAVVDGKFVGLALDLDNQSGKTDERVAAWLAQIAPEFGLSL
# Protocol details: FMN fluorescence increase on dilution of holoprotein
Observed property: Kd (pM)

# Compound, Val
measured = [
    ("Cc1cc2nc3c(=O)[nH]c(=O)nc-3n(C[C@H](O)[C@H](O)[C@H](O)COP(=O)(O)O)c2cc1C [flavin mononucleotide]", 3.82),
]
